Assay: Acute toxicity, mouse
Settings: in vivo, oral, observation 14 days, read-out: DL50
readout type: LD50 at 336 h (mg/kg)
Give just the numeric value; mg/kg need not be written.

Determine its reported LD50 at 336 h: O=C(O)CCCNCCC(=O)O
1000

----------
Test: Acute toxicity, mouse
Conditions: in vivo, line marked (+), route not given, observation 14 days, read-out: DL50
readout type: LD50 at 336 h
The reply must contain the numeric value and, after it, the unit.

Determine its reported LD50 at 336 h: O=C(O)CCCNCCC(=O)O
1000 mg/kg

----------
Experiment: Acute toxicity, rat
Details: in vivo, line marked (+), route not given, observation 14 days, read-out: DL50
readout type: LD50 at 336 h (mg/kg)
Give just the numeric value; mg/kg need not be written.

Determine its reported LD50 at 336 h: O=C(O)CCCNCCC(=O)O
1000

Measured values drawn from patent US4563478A for this set.
